# Test system: TRKC;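 further: KINOMEscan kinase panel screen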
# Construct: gene NTRK3
# setup conditions: concentration: 1 μM, replicates: in singlicate; n = 1

molecule	unit	%Inh
Fc1ccc(-c2ncn(C3CCNCC3)c2-c2ccnc(Oc3ccc(-c4ccccc4)cc3)n2)cc1 [SB-245391]	%	19
COc1cc(Nc2nccc(N3CCC(NC(=O)Nc4cccc(C(C)=O)c4)C3)n2)cc(OC)c1OC (centres unmarked) [GSK1379753]	%	92.3
Cc1ccc(C(=O)Nc2ccc(Nc3ccnc4cc(-c5nccs5)ccc34)cc2O)cc1.Cl [GW494702]	%	25
Cl.Cl.NCC(C(=O)Nc1cc(Br)c(-c2ccnc3[nH]ccc23)s1)c1ccccc1 (centres unmarked) [GSK1269851]	%	31
CN1CCN(Cc2cccc(-c3ccc4c(Nc5ccc(Oc6ccccc6)cc5)ccnc4c3)c2)CC1 [GW578342]	%	19
COc1cc(Nc2nccc(-c3c(-c4cccc(NC(=O)c5c(F)cccc5F)c4)nn4ncccc34)n2)cc(OC)c1OC [GSK327238]	%	0
Cn1cc(-c2ccc3c(c2)CCN3C(=O)Cc2cccc(F)c2)c2c(N)ncnc21 [GSK2603358]	%	50
COc1ccc(CNC(=O)NC2CCN(c3ccnc(Nc4ccc(F)cc4)n3)CC2)cc1 [GSK1379788]	%	6
